Just for reference, the supplement of paper PMC9170038 is where these values come from.

tested on: MS2 coat protein; experiment: apparent KD of MS2 coat protein, switch OFF state (with FMN for OFF switches, without FMN for ON switches); designed switch direction (-1 OFF switch, 1 ON switch): -1; higher = weaker reporter binding; details: FMN input: 0 or 200 uM; Eterna round: R93 (includes R88 designs)
attribute_measured: apparent KD of MS2 coat protein (nM)
Kindly provide the numeric value in nM only, without the unit symbol.

[ask] Given AUCGAUCGAGGAUAUACAUGAGGAUCACCCAUGUAAAAAAAAAAAAAGGCCUCAGGAUGUAGAAGGCGACGCAA [JR_Exc003_Sub403] , state its recorded apparent KD of MS2 coat protein.
[reply] 18.7

[ask] Please do the same for GGAAAACAUGAGGAUCACCCAUGUAAGGAUAUGCAAAAAAAAGGAUAUAGAAGGAAAAGCAGAAGGUACAAAGG [salish99-ex1-26] as well.
[reply] 38.2

[ask] Please do the same for AAGAACUCAGGAUAUACAUGAGGAUCACCCAUGUAAAAGAAAGAGGGAAAAGAGAAAAGUAGAAGGGAGAAGAA [Ptolemy IV Philopator] as well.
[reply] 46.9

[ask] Please do the same for AAAGGACGAGGAUAUACAUGAGGAUCACCCAUGUAAAAAACAUAAAAAAAGAACUUAUGUAGAAGGCGUCCAAA [69%, Moding Meechl, 3] as well.
[reply] 399

[ask] Please do the same for AAAAAUGGAGGAUAUACAUGAGGAUCACCCAUGUGUGGCCAUACUAUGUGGUCGUCAGGUAGAAGGCCAAAAAA [Gilly Gone Silly 23 - Jieux - Exclusion 3] as well.
[reply] 178

[ask] Please do the same for AAAAAUGGAGGAUAUACAUGAGGAUCACCCAUGUGAAACAAAACAAAAAACAAAAAAAGUAGAAGGCCAAAAAA [Gilly Gone Silly 3 - Jieux - Exclusion 3] as well.
[reply] 40.1

[ask] Please do the same for AACAGUACAGGAUAUACAUGAGGAUCACCCAUGUGAAGAAUAAGUGGAGUACCACAAAGUAGAAGGGUACUGGA [Ruby 88] as well.
[reply] 104

[ask] Please do the same for AAAAAACAUGAGGAUCACCCAUGUAAGGAUAUGCUCGUGCGAAAGCACAAAAAAAAGAGCAGAAGGUACAAAAA [66%, Wbt, 38] as well.
[reply] 32.3

[ask] Please do the same for CCUAUGUCAGGAUAUCAGUAGUAAAAAAAAAAAAUUACUACUGAGAAGGGACAUGAGGAUCACCCAUGUUCAAA [EX4 313: Super Stable 13] as well.
[reply] 66.4

[ask] Please do the same for AAAAAAGGAGGAUAUACGAACAUGUCGAAAGACGUGAAGGGACAUGAGGAUCACCCAUGUAGAAGGUCUAAAAA [Mat - Exclusion 2 - JL mod - D87] as well.
[reply] 29.9

[ask] Please do the same for AGGAUGUCAGGAUAUGUGUAAAGAAUAAAACAAAUAACAACACAGAAGGGACAUGAGGAUCACCCAUGUUAAAA [May 36] as well.
[reply] 54

[ask] Please do the same for `AAAAGGAUAGGAUAUACAUGAGGAUCACCCAUGUGAAUAAAUAAAAGAAAUAAAGAAAGUAGAAGGGUCAAGAA` as well.
[reply] 22

[ask] Please do the same for AAAUCGGCAGGAUAUACAUGAAAAUUAAAAAAAAAAAAAAAACAUGAGGAUCACCCAUGUAGAAGGGUCAAAAA [Exclusion 2 - Omei 3] as well.
[reply] 75.2

* * *

test system: K4 kissing-loop RNA reporter; assay: apparent KD of K4 kissing-loop reporter; higher = weaker reporter binding; conditions: Eterna round: R107; input ligand: none;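 also: bound reporter read as fluorescence of individual clusters on recovered sequencing chips by microscopy, with normalized cluster intensities fitted with a binding model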
attribute_measured: apparent KD of K4 kissing-loop reporter (nM)
Kindly provide the numeric value in nM only, without the unit symbol.

[ask] Given GGAUAGGACAGAGGAUAUCCUAAAGAGGCAAGAAUAACUUGUCUCAAAUGGAUGACCAGUGAUGUUGGAGAAGGCUGUCCUAUCG [FmnBX 6 - #SwitchBubble #StaticStem] , state its recorded apparent KD of K4 kissing-loop reporter.
[reply] 207

[ask] Please do the same for ACGCUUGAAUAACAAGCGAAAUAAAAUUCGCGAGGACCGGUACGGCCGCCACUCGCUAACUGCGAGUGAUGUUCGAUAAUAAAAU [Mat - Mod of OpenEnded 3 - D16] as well.
[reply] 129

[ask] Please do the same for `GGGAGCAAAGCUCCCGGAUGCUAUAGUCAGGAGGAUAUCUGGAAACAGAGAAGGCCUAAGCCAGUGAUGUUGGCUAUAAGCAUCC` as well.
[reply] 757

[ask] Please do the same for UGUAUCAUCUAAGGAUAUAUCAUGUGAUGCACCGAGUAUCGCAUCAAUUCUGAGUGAUGUUCAGGUAUAGAAGGUAGAUGAUGCA [FMN B SS t2] as well.
[reply] 212

[ask] Please do the same for AUACACGUUGCGGCCGCCACUUCGAUUAGUGAUGUUAGGUGUAAGCAGGCGCUGCAUUAAUGUGAAAGGACCGGGCAGAGUAAGC [theeternabot_exclusion_KL_Trp_B_39] as well.
[reply] 160

[ask] Please do the same for UUGUGCAGCAAACGAGUGAUGUUCGACGAUACCAGCCUCGAUAGAGGCCCUUGGCAGCGUAAUAAUCACAGCCAAGGGCUGCACU [#SwitchBubble 4] as well.
[reply] 749

* * *

test system: MS2 coat protein; assay: apparent KD of MS2 coat protein; higher = weaker reporter binding; conditions: Eterna round: R107; input ligand: arginine 13.2 mM
Kindly supply the reported apparent KD of MS2 coat protein values for the records listed here.
Kindly provide the numeric value in nM only, without the unit symbol.

[ask] Given AAUGUGAAGGCGGCCGCCACUGAUAAUAGACAUGAGGAUCACCCAUGUAUAAAUCCUCAAUAAGACAGGACCGGGCCAACUACGU [Exclusion Tryptophan B GF 1] , state its recorded apparent KD of MS2 coat protein.
[reply] 93

[ask] Please do the same for AUAUAUACAUGAGGAUCACCCAUGUUAUUACGAGGACCGGUACGGCCGCCACUCGAUAGAGUAGAAGUAAAUUUUAAUUCAUGUA [JR_SSTryptoA_Sub007] as well.
[reply] 14.6

[ask] Please do the same for ACAUUUAACUGAAGGAGCGUGAAUAACAUGAGGAUCACCCAUGUAACUUAGAUUCUUAUAUCACAGGUAGGUCGCAGACUAAUGA [JR_ExcArginiB_Sub012] as well.
[reply] 24.9

[ask] Please do the same for ACAUGAGGAUCACCCAUGUUCCUCGCCGAUACCAGUGAAGAAGAACGCCCUUGGCAGCGGAAAGAAUAUUUUGGAGAUGAGGUAU [6.W] as well.
[reply] 120

[ask] Please do the same for ACAUGAGGAUCACCCAUGUCAUGAGGUUCACGAGGACCGGUACGGCCGCCACUCGACAUGAGGGUCACCCAUGUGAGGAACACCC [mamullun] as well.
[reply] 117

[ask] Please do the same for GGUGGCGGGACUGAUACCAGCCACCACCGAUAGACCACAUGAGGAUCACCCAUGUUGGGUGGCCCUUGGCAGCAGUCUUGCUGCU [#1 Same State - Theophylline B Attempt #13 (HarryS)] as well.
[reply] 64.1

* * *

test system: MS2 coat protein; test: apparent KD of MS2 coat protein; designed switch direction (-1 OFF switch, 1 ON switch): -1; higher = weaker reporter binding; conditions: Eterna round: R95; input ligand: FMN 200 uM
attribute_measured: apparent KD of MS2 coat protein
Answer by giving the amount and then stating its unit.

[ask] Request body: readout apparent KD of MS2 coat protein, system MS2 coat protein, query AAAUACAGGUAAAGAUUCUACAUGAGGAUCACCCAUGUGCUCGUCUUAUAAAGUACUAUCACGAAAGUGAUAGUACA [Sensor 3, v1 - 40] (puzzle: Sensor v3, turn-off variant 1) . Return the value.
[reply] 25.9 nM

[ask] Please do the same for AAGAGUGCAGGAUAUACGUGAUGGAGUAGGAUGAGAGAAGGACAUGAGGAUCACCCAUGUAGAAGGGCAGAGAG [JR_Exclu2_Sub059] (puzzle: Exclusion 2) as well.
[reply] 28.7 nM

[ask] Please do the same for UAUAAGCUAGGAUAUCGCUGAGUAAACAUGAGGAUCACCCAUGUGGACCAUGAUUGCCACCGAGAAGGAGCGGGAA [Aonat] (puzzle: Exclusion 5) as well.
[reply] 119 nM

[ask] Please do the same for GAGAAGGUAGGAUAUACGAAUAAAUAGGGUAGUAAUAAGACACAUGAGGAUCACCCAUGUAGAAGGACCAAGAG [Mat - Exclusion 2 - Mod of my Tesla design - D38] (puzzle: Exclusion 2) as well.
[reply] 37 nM

[ask] Please do the same for AAAUACAAGCAAAGAUCCUACAUGAGGAUCACCCAUGUGCUCGUCUUGUAAAGUACUAUCACGAAAGUGAUAGUACA [Sensor 3, v1 - 16] (puzzle: Sensor v3, turn-off variant 1) as well.
[reply] 51.9 nM
